Reported values of composite z-score for individual entries
assay: small-molecule binders of probe aNOTCH3, primary screen, biochemical, small-molecule microarray, 635/667 nm fluorescence (AID 1120); details: higher = more signal;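 further: probe is a biotin-tagged antibody raised against NOTCH3 rather than NOTCH3 protein; score merges spot fluorescence near 667 nm with spot signal to noise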
Enter a number only.

Previously resolved entries follow.
# compound, composite z-score
records = [
    ("COC(=O)[C@H]1N=C(c2ccc(OCCCO)cc2)O[C@H]1c1ccccc1N=[N+]=[N-]", 0.156),
    ("COC(=O)[C@@]1(Cc2ccc(F)cc2)[C@H]2c3cc(C(=O)N4CCCC4)n(C[C@H](O)CO)c3C[C@H]2CN1C(=O)c1ccccc1", 0.591),
    ("CC(C)C(=C=CC[C@H](O)c1cccc(OCCO)c1)C[C@H](O)c1ccccn1", -0.0647),
    ("COC(=O)[C@@]1(Cc2ccccc2)[C@H]2c3cc(C(=O)N(C)C)n(CCF)c3C[C@H]2CN1C(=O)c1ccccc1", 0.62),
    ("COc1ccc(CCNC(=O)[C@@H]2c3ccccc3C(=O)N(C(C)C)[C@H]2c2ccc(CO)cc2)cc1", -0.209),
]

Next up:
**Q:** Quick one: composite z-score for CCCC=C(CCC)[C@@H](NC(=O)c1ccc(C(=O)OC)cc1)c1ccc(C(=O)OC)cc1 ?
**A:** 0.0847

====

Reported values of composite z-score for individual entries
system: Chordin-like protein 2 (CHRDL2); assay: CHRDL2 small-molecule binders, primary screen, biochemical, small-molecule microarray, 635 nm fluorescence (AID 1126); conditions: small-molecule microarray binding, fluorescence 635 nm; higher = more signal;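 further: printed compound slides probed with Chrdl2 protein at 4 µg/mL for 1 h at 4 C; score merges 667 nm emission intensity with signal to noise over three replicate slides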
Enter a number only.

# structure, experimental_value
data = [
    ("COC(=O)C(CC#Cc1ccc2c(c1)[C@]1(C(=O)N2)[C@H](C(=O)N2CCN(c3ncccn3)CC2)[C@H]2C(=O)O[C@H](c3ccccc3)[C@H](c3ccccc3)N2[C@@H]1c1ccc(O)cc1)C(=O)OC", 1.08),
]

**Q:** Quick one: composite z-score for COc1c(C)cc(-c2cc3c(c(CCc4ccccc4)n2)[Si](C(C)C)(C(C)C)O[C@H]3c2ccccc2)cc1C ?
**A:** -0.2

**Q:** Quick one: composite z-score for COc1ccc([Si](C)(C)[C@@H]2[C@@H](CC(=O)N3Cc4ccccc4C[C@H]3CO)O[C@]3(C(=O)N(Cc4ccc(I)cc4)c4ccccc43)[C@H]2C)cc1 ?
**A:** 1.35

====

tested on: PRMT1 (protein arginine N-methyltransferase 1); assay: PRMT1 binders on small-molecule microarrays, primary screen, biochemical, small-molecule microarray, 635 nm fluorescence (AID 1088); settings: small-molecule microarray binding, higher = more signal;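 further: binding of Prmt1 protein to compounds spotted on small-molecule microarray slides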
experimental_endpoint: composite z-score
Enter a number only.

**Q:** Quick one: composite z-score for COc1ccc([Si](C)(C)[C@@H]2[C@@H](CC(=O)N(CCO)Cc3ccccc3)O[C@]3(C(=O)N(Cc4cccc(I)c4)c4ccccc43)[C@H]2C)cc1 ?
**A:** 1.46

**Q:** Quick one: composite z-score for CO[C@H]1O[C@H](CO)[C@@H](OC(=O)Nc2cccc(F)c2)[C@H](OC(=O)Nc2ccc3c(c2)OCO3)[C@@H]1OC(=O)Nc1ccc2c(c1)OCO2 ?
**A:** 1.53

**Q:** Quick one: composite z-score for CO[C@H]1O[C@H](CO)[C@@H](OC(=O)CCc2ccccc2)[C@@H]2OC(=O)[C@@H](Cc3ccc4ccccc4c3)C/C=C/C[C@H](Cc3ccc4ccccc4c3)C(=O)O[C@@H]12 ?
**A:** 0.505

**Q:** Quick one: composite z-score for COc1cc2c(cc1O)C(C)N(Cc1sc3ccccc3c1Cl)CC2 (centres undefined) ?
**A:** -0.77

**Q:** Quick one: composite z-score for O=C1C2C=CC(C(O)C3CC=CCC3)N(Nc3ccc([N+](=O)[O-])cc3)C2C(=O)N1c1ccccc1 (centres undefined) ?
**A:** 1.41

**Q:** Quick one: composite z-score for C=C(CCCC)C(=O)CC[C@@H](OC(C)=O)c1ccc(OCCO)cc1 ?
**A:** 1.01

**Q:** Quick one: composite z-score for O=C1NC(=O)C2C1C=CC(C(O)c1ccc(F)cc1)N2Nc1ccc(Cl)cc1Cl (centres undefined) ?
**A:** 0.589

**Q:** Quick one: composite z-score for O=C1c2ccccc2[C@](Cc2ccccc2I)(C(=O)NCCN2CCOCC2)[C@H](c2ccc(CO)cc2)N1Cc1ccccc1C(F)(F)F ?
**A:** 1.56

**Q:** Quick one: composite z-score for C=C[C@H](OC)[C@@H](O)c1ccc(OC)c(O)c1 ?
**A:** -1.84

**Q:** Quick one: composite z-score for COCCOC(=O)N1C(=O)[C@@]2(c3ccccc31)[C@H](C(=O)Nc1nc3ccccc3s1)[C@H]1C(=O)O[C@H](c3ccccc3)[C@H](c3ccccc3)N1[C@@H]2c1ccccc1OCCO ?
**A:** 1.56

**Q:** Quick one: composite z-score for C=CCOC(=O)[C@H]1[C@@H]2C(=O)O[C@@H](c3ccccc3)[C@@H](c3ccccc3)N2[C@@H](c2ccc(OCCOC(=O)[C@H]3C[C@H]4C(=O)NCC(=O)N4[C@H]3c3cccc(OCCO)c3)cc2)[C@]12C(=O)Nc1ccc(I)cc12 ?
**A:** 1.54

**Q:** Quick one: composite z-score for CC(C)c1ccc(NN2C(C(O)C3=C[C@H]4C[C@@H](C3)C4(C)C)C=CC3C(=O)N(c4ccccc4)C(=O)C32)cc1 (some centres undefined) ?
**A:** 1.32

**Q:** Quick one: composite z-score for C=CCN1C(=O)[C@]2(O[C@H](CCO)[C@@H]([Si](C)(C)c3ccc(OC)cc3)[C@@H]2C)c2cc(N3C(=O)c4ccccc4Oc4ccccc43)ccc21 ?
**A:** 1.41

**Q:** Quick one: composite z-score for C=CC[C@]1(C(=O)NCCN2CCOCC2)N=C(c2ccc(OCCCO)cc2)O[C@H]1c1ccccc1 ?
**A:** 1.17

====

test: adipocyte viability effects, profiling panel, cell-based, 3T3-L1 adipocytes, calcein-AM fluorescence, 48 h, basal (AID 1163); conditions: 3T3-L1 adipocytes viability, higher = more signal; further: test concentration not given here
Mark satisfied only when z-score stays strictly below -0.7. Values equal to the cut-off are not satisfied.

# compound, qualitative_label
rows = [
    ("COC(=O)[C@]1(Cc2ccccc2N=[N+]=[N-])N=C(c2ccc(OCCCO)cc2)O[C@@H]1c1ccccc1CN=[N+]=[N-]", "not satisfied"),
    ("COC(=O)[C@@]1(Cc2ccc(OC)cc2)[C@H]2c3cc(C(=O)N(C)C)n(Cc4c(CO)[nH]cc(C)c4=O)c3C[C@H]2CN1C(=O)c1ccccc1", "not satisfied"),
    ("O=C1OCCC/C=C\\[C@H]2OC34C=CCN(Cc5ccccc5)C(=O)[C@H]3N(CCO)C(=O)[C@@H]4C12 (some centres not stated)", "satisfied"),
    ("O=C1C2C=CC(C(O)c3ccccn3)N(Nc3ccc([N+](=O)[O-])cc3)C2C(=O)N1c1ccccc1 (configuration not stated)", "satisfied"),
    ("COC(=O)[C@@]1(Cc2ccc(F)cc2)[C@H]2c3cc(C(=O)N4CCCC4)n(CCc4c[nH]c5cc(F)ccc45)c3C[C@H]2CN1C(=O)c1ccccc1", "not satisfied"),
    ("COCCOC(=O)N1C(=O)[C@@]2(c3cc(C#CCNC(N)=O)ccc31)[C@H](C(=O)Nc1nc3ccccc3s1)[C@H]1C(=O)O[C@H](c3ccccc3)[C@H](c3ccccc3)N1[C@@H]2c1ccc(O)cc1", "not satisfied"),
]

Moving on to the next compound.
**Q:** Bench note: check whether C=CC[C@H](OC(=O)Nc1ccc(SC)cc1)c1ccc(O)c(F)c1 shows z-score below -0.7
**A:** not satisfied

====

biological target: Epidermal growth factor receptor (Homo sapiens); assay: EGFR binders on small-molecule microarrays, primary screen, biochemical, small-molecule microarray, 635 nm fluorescence (AID 1104); conditions: EGFR binding, higher = more signal;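 further: score merges 667 nm emission intensity with spot signal to noise over triplicate slides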
Assign yes to entries whose composite z-score meets or exceeds 0.2; assign no to the rest.

# compound, tested_system, qualitative_label
records = [
    ("Cc1ccc(S[C@]2(C(=O)NC(C)C)CC(=O)N(Cc3ccccc3)[C@@H]2c2ccc(CO)cc2)cc1", "Epidermal growth factor receptor (Homo sapiens)", "no"),
    ("COc1ccc([Si](C)(C)[C@H]2[C@H](CCO)O[C@@]3(C(=O)N(Cc4ccccc4)c4ccc(NC(=O)[C@H](C)O)cc43)[C@@H]2C)cc1", "Epidermal growth factor receptor (Homo sapiens)", "no"),
]

**Q:** Does composite z-score meet or surpass 0.2 for CC(C)N1C(=O)[C@@]2(Cc3ccccc31)c1ccccc1C(=O)N(Cc1ccccc1C(F)(F)F)[C@H]2c1ccc(CO)cc1 ?
**A:** no

**Q:** Does composite z-score meet or surpass 0.2 for C=CC[C@]12N=C(c3ccc(OCCCO)cc3)O[C@H]1c1ccccc1N(CCC)C2=O ?
**A:** yes

**Q:** Does composite z-score meet or surpass 0.2 for C=CCNC(=O)[C@H]1[C@@H]2C(=O)O[C@@H](c3ccccc3)[C@@H](c3ccccc3)N2[C@@H](c2ccc(OCCO)cc2)[C@]12C(=O)Nc1ccc(C#Cc3ccc(OC)cc3)cc12 ?
**A:** yes
